System: mice
assayName: In vivo delivery of FLuc-mRNA lipid nanoparticles in mice, in vivo imaging (IVIS)
reportedConditions: Fluc-mRNA LNP; route IM; organ: spleen; formulation, molar ratio and N/P as in the table
Reported IVIS values are given for each entry in this list.

molecule: CCCCCCCC(CCCCCCC)OC(=O)CCCNC(=O)C(O)CN(CCCN(CC(O)C(=O)NCCCC(=O)OC(CCCCCCC)CCCCCCC)CC(O)C(=O)NCCCC(=O)OC(CCCCCCC)CCCCCCC)CCCN(CC(O)C(=O)NCCCC(=O)OC(CCCCCCC)CCCCCCC)CC(O)C(=O)NCCCC(=O)OC(CCCCCCC)CCCCCCC (stereo not shown)
IVIS: 4.47E+05
--
molecule: CCCCCCC(CCCCCC)C(=O)NCCOC(=O)C(O)CN(CCN(C)CCN(CC(O)C(=O)OCCNC(=O)C(CCCCCC)CCCCCC)CC(O)C(=O)OCCNC(=O)C(CCCCCC)CCCCCC)CC(O)C(=O)OCCNC(=O)C(CCCCCC)CCCCCC (stereo not shown)
IVIS: 2.09E+07
--
molecule: CCCCCCCCC(CCCCCC)C(=O)OCCCCNC(=O)C(O)CN(CCCN(C)CCCN(CC(O)C(=O)NCCCCOC(=O)C(CCCCCC)CCCCCCCC)CC(O)C(=O)NCCCCOC(=O)C(CCCCCC)CCCCCCCC)CC(O)C(=O)NCCCCOC(=O)C(CCCCCC)CCCCCCCC (stereo not shown)
IVIS: 4.72E+05
--
molecule: CCCCCCCC(CCCCCCC)OC(=O)CCCNC(=O)C(O)CN(CCN(C)CCN(CC(O)C(=O)NCCCC(=O)OC(CCCCCCC)CCCCCCC)CC(O)C(=O)NCCCC(=O)OC(CCCCCCC)CCCCCCC)CC(O)C(=O)NCCCC(=O)OC(CCCCCCC)CCCCCCC (stereo not shown)
IVIS: 4.01E+05

---

System: mice
assayName: In vivo delivery of FLuc-mRNA lipid nanoparticles in mice, in vivo imaging (IVIS)
reportedConditions: Fluc-mRNA LNP; route IV; organ: lung; formulation, molar ratio and N/P as in the table
readoutKind: IVIS

compound: CCCCCCCC(CCCCCCC)OC(=O)CCCNC(=O)C(O)CN(CCCN(C)CCCN(CC(O)C(=O)NCCCC(=O)OC(CCCCCCC)CCCCCCC)CC(O)C(=O)NCCCC(=O)OC(CCCCCCC)CCCCCCC)CC(O)C(=O)NCCCC(=O)OC(CCCCCCC)CCCCCCC (centres unmarked)
resultNumber: 4.72E+07
--
compound: CCCCCCCCCCN(C)C(=O)C(O)CN(CCCN(CC(O)C(=O)N(C)CCCCCCCCCC)CC(O)C(=O)N(C)CCCCCCCCCC)CCCN(CC(O)C(=O)N(C)CCCCCCCCCC)CC(O)C(=O)N(C)CCCCCCCCCC (centres unmarked)
resultNumber: 3.33E+06
--
compound: CCCCCCCCCCCCCCN(C)C(=O)C(O)CN(CCCN(CC(O)C(=O)N(C)CCCCCCCCCCCCCC)CC(O)C(=O)N(C)CCCCCCCCCCCCCC)CCCN(CC(O)C(=O)N(C)CCCCCCCCCCCCCC)CC(O)C(=O)N(C)CCCCCCCCCCCCCC (centres unmarked)
resultNumber: 2.06E+05
--
compound: CCCCCCCCC(CCCCCC)C(=O)NCCOC(=O)C(O)CN(CCCN(C)CCCN(CC(O)C(=O)OCCNC(=O)C(CCCCCC)CCCCCCCC)CC(O)C(=O)OCCNC(=O)C(CCCCCC)CCCCCCCC)CC(O)C(=O)OCCNC(=O)C(CCCCCC)CCCCCCCC (centres unmarked)
resultNumber: 1.10E+07
--
compound: CCCCCCCCC(CCCCCC)C(=O)OCCCCNC(=O)C(O)CCN(CCCN(C)CCN(CC(O)C(=O)NCCCCOC(=O)C(CCCCCC)CCCCCCCC)CC(O)C(=O)NCCCCOC(=O)C(CCCCCC)CCCCCCCC)C(O)C(=O)NCCCCOC(=O)C(CCCCCC)CCCCCCCC (centres unmarked)
resultNumber: 6.67E+06
--
compound: CCCCCCC(CCCCCC)C(=O)OCCCCCCNC(=O)C(O)CN(CCN(C)CCN(CC(O)C(=O)NCCCCCCOC(=O)C(CCCCCC)CCCCCC)CC(O)C(=O)NCCCCCCOC(=O)C(CCCCCC)CCCCCC)CC(O)C(=O)NCCCCCCOC(=O)C(CCCCCC)CCCCCC (centres unmarked)
resultNumber: 9.61E+06
--
compound: CCCCCCC(CCCCCC)C(=O)NCCOC(=O)C(O)CN(CCCN(C)CCCN(CC(O)C(=O)OCCNC(=O)C(CCCCCC)CCCCCC)CC(O)C(=O)OCCNC(=O)C(CCCCCC)CCCCCC)CC(O)C(=O)OCCNC(=O)C(CCCCCC)CCCCCC (centres unmarked)
resultNumber: 1.36E+07
--
compound: CCCCCCCCCCCCCCN(C)C(=O)C(O)CN(CCCN(C)CCCN(CC(O)C(=O)N(C)CCCCCCCCCCCCCC)CC(O)C(=O)N(C)CCCCCCCCCCCCCC)CC(O)C(=O)N(C)CCCCCCCCCCCCCC (centres unmarked)
resultNumber: 1.34E+07

---

System: mice
assayName: In vivo delivery of FLuc-mRNA lipid nanoparticles in mice, in vivo imaging (IVIS)
reportedConditions: IV, lung; DMG-PEG2000:DSPC:Chol:compound 1.40:11.15:38.95:48.50, N/P 30
Measured % of organ targeting values are reported for all entries that follow.

molecule: CCCCCCCCC(CCCCCC)C(=O)OCCCCCCOC(=O)C(O)CN(CCCN(C)CCCN(CC(O)C(=O)OCCCCCCOC(=O)C(CCCCCC)CCCCCCCC)CC(O)C(=O)OCCCCCCOC(=O)C(CCCCCC)CCCCCCCC)CC(O)C(=O)OCCCCCCOC(=O)C(CCCCCC)CCCCCCCC (centres unmarked)
% of organ targeting / %: 5.87

molecule: CCCCCCC(CCCCCC)C(=O)OCCCCCCOC(=O)C(O)CN(C)CCN(C)CCN(C)CC(O)C(=O)OCCCCCCOC(=O)C(CCCCCC)CCCCCC (centres unmarked)
% of organ targeting / %: 3.97

molecule: CCCCCCC(CCCCCC)C(=O)OCCCCCCOC(=O)C(O)CN(CCN(C)CCN(CC(O)C(=O)OCCCCCCOC(=O)C(CCCCCC)CCCCCC)CC(O)C(=O)OCCCCCCOC(=O)C(CCCCCC)CCCCCC)CC(O)C(=O)OCCCCCCOC(=O)C(CCCCCC)CCCCCC (centres unmarked)
% of organ targeting / %: 0.71

molecule: CCCCCCCCCCOC(=O)C(O)CN(CCN(C)CCN(CC(O)C(=O)OCCCCCCCCCC)CC(O)C(=O)OCCCCCCCCCC)CC(O)C(=O)OCCCCCCCCCC (centres unmarked)
% of organ targeting / %: 2.94

molecule: CCCCCCOC(C)OCCCCCCOC(=O)C(O)CN(CCCN(CC(O)C(=O)OCCCCCCOC(C)OCCCCCC)CC(O)C(=O)OCCCCCCOC(C)OCCCCCC)CCCN(CC(O)C(=O)OCCCCCCOC(C)OCCCCCC)CC(O)C(=O)OCCCCCCOC(C)OCCCCCC (centres unmarked)
% of organ targeting / %: 1.45

molecule: CCCCCCCCCCOC(=O)C(O)CN(CCCN(CC(O)C(=O)OCCCCCCCCCC)CC(O)C(=O)OCCCCCCCCCC)CCCN(CC(O)C(=O)OCCCCCCCCCC)CC(O)C(=O)OCCCCCCCCCC (centres unmarked)
% of organ targeting / %: 0.41

molecule: CCCCCCC(CCCCCC)C(=O)OCCCCOC(=O)C(O)CN(CCCN(C)CCCN(CC(O)C(=O)OCCCCOC(=O)C(CCCCCC)CCCCCC)CC(O)C(=O)OCCCCOC(=O)C(CCCCCC)CCCCCC)CC(O)C(=O)OCCCCOC(=O)C(CCCCCC)CCCCCC (centres unmarked)
% of organ targeting / %: 7.55

molecule: CCCCCCOC(C)OCCCCCCOC(=O)C(O)CN(CCN(C)CCN(CC(O)C(=O)OCCCCCCOC(C)OCCCCCC)CC(O)C(=O)OCCCCCCOC(C)OCCCCCC)CC(O)C(=O)OCCCCCCOC(C)OCCCCCC (centres unmarked)
% of organ targeting / %: 4.15

molecule: CCCCCCCCC(CCCCCC)C(=O)OCCCCCCOC(=O)C(O)CN(C)CCN(C)CCN(C)CC(O)C(=O)OCCCCCCOC(=O)C(CCCCCC)CCCCCCCC (centres unmarked)
% of organ targeting / %: 16.03

molecule: CC/C=C\CCOCOCCCCCCOC(=O)C(O)CN(CCN(C)CCN(CC(O)C(=O)OCCCCCCOCOCC/C=C\CC)CC(O)C(=O)OCCCCCCOCOCC/C=C\CC)CC(O)C(=O)OCCCCCCOCOCC/C=C\CC (centres unmarked)
% of organ targeting / %: 6.95

molecule: CCCCCCCCCCNC(=O)C(O)CN(CCCN(CCCN(CC(O)C(=O)NCCCCCCCCCC)CC(O)C(=O)NCCCCCCCCCC)C(CO)CO)CC(O)C(=O)NCCCCCCCCCC (centres unmarked)
% of organ targeting / %: 25.98

molecule: CCCCCCC(CCCCCC)C(=O)OCCCCOC(=O)C(O)CN(CCN(C)CCN(CC(O)C(=O)OCCCCOC(=O)C(CCCCCC)CCCCCC)CC(O)C(=O)OCCCCOC(=O)C(CCCCCC)CCCCCC)CC(O)C(=O)OCCCCOC(=O)C(CCCCCC)CCCCCC (centres unmarked)
% of organ targeting / %: 13.24

molecule: CCCCCCCCCCCCNCC(O)CN(CCCCCN(C)CCCCCN(CC(O)CNCCCCCCCCCCCC)CC(O)C(=O)NCCCCCCCCCCCC)CC(O)C(=O)NCCCCCCCCCCCC (centres unmarked)
% of organ targeting / %: 96.16

molecule: CCCCCCCCC(CCCCCC)C(=O)OCCCCOC(=O)C(O)CN(CCN(C)CCN(CC(O)C(=O)OCCCCOC(=O)C(CCCCCC)CCCCCCCC)CC(O)C(=O)OCCCCOC(=O)C(CCCCCC)CCCCCCCC)CC(O)C(=O)OCCCCOC(=O)C(CCCCCC)CCCCCCCC (centres unmarked)
% of organ targeting / %: 5.53
